The reported numbers originate from the supplement of paper PMC11780869.

# Test system: Bacillus subtilis
# assayInfo: cleaved RNA product abundance (RNA/gDNA barcode ratio) relative to median wild-type variant (ratio to wild type); higher = more accumulation of the downstream cleavage product
# assayConditions: experiment (reporter, strain, medium): exp 4a: truncated aprE reporter, strain BJT201 with 2% xylose (RNase J1 expressed); cleavage site: cggR-gapA (positions -7 to +36 mutated)
assayMetric: cleaved RNA product abundance

Worked cases, answers included:
[
  {
    "orderedResidues": "ACAGACGAAGGAGCCGCAAAGAAGTTATTAAGGAATGAATAATCCCTCAATATAAACATCTCTCACTTATTTAAA",
    "cleaved RNA product abundance": 0.121
  },
  {
    "orderedResidues": "ACAGACGAAGGAGCCGCGAAGAATTTATTAAGGGATGAATAATCCCTCAATATAAATATCTCTCACTTATTTAAA",
    "cleaved RNA product abundance": 0.561
  },
  {
    "orderedResidues": "ACAGACGAAGGAGCCGCAAAGAAGTTATTAAGGGATGAATTATCTCTCAATATAAATATCTCTCACTTATTTAAA",
    "cleaved RNA product abundance": 0.37
  }
]

Read the next record carefully.
Request the reported cleaved RNA product abundance associated with ACAGACGAAGGAGCCGCAAAGAAGTTATCAAGGGATGAATAATCACTCAATATAAATATCTCTCACTTATTTAAA
0.139

---

# System: Bacillus subtilis
# assayInfo: cleaved RNA product abundance (RNA/gDNA barcode ratio) relative to median wild-type variant (ratio to wild type); higher = more accumulation of the downstream cleavage product
# assayConditions: experiment (reporter, strain, medium): exp 4a: truncated aprE reporter, strain BJT201 with 2% xylose (RNase J1 expressed); cleavage site: cggR-gapA (positions -7 to +36 mutated)
assayMetric: cleaved RNA product abundance
Write the number on its own, no unit after it.

Solved cases (4 shown):
[
  {
    "orderedResidues": "ACAGACGAAGGAGCCGCAAAACAGTTATTAAGGGATGAATAATCCCTCAATATAAATATCTCTCACTTATTTAAA",
    "cleaved RNA product abundance": 0.897
  },
  {
    "orderedResidues": "ACAGACGAAGGAGCCGCAAAGAAGTTATTAAGGGATGAATATTCCCTCAATATAAATCTCTCTCACTTATTTAAA",
    "cleaved RNA product abundance": 0.471
  },
  {
    "orderedResidues": "ACAGACGAAGGAGCCGCAAAGAAGTTATTAAGGGATGAATAACCCCTCAATATAAATATCTCTCACTTATTTAAA",
    "cleaved RNA product abundance": 0.609
  },
  {
    "orderedResidues": "ACAGACGAAGGAGCCGCAAAGAAGTTATAAAGGTATGAATAATCCCTCAATATAAATATCTCTCACTTATTTAAA",
    "cleaved RNA product abundance": 0.0975
  }
]

Data request, read-out cleaved RNA product abundance, for ACAGACGAAGGAGCCGCATAGAAGTTATTAAGGGATGACTAATCCCTCAATATAAATATCTCTCACTTATTTAAA
0.679

Same lookup for ACAGACGAAGGAGCCGCAAAGTAGTTATTAAGGGATGAATAATCCCTCATTATAAATATCTCTCACTTATTTAAA , please.
0.396

Now give it for ACAGACGAAGGAGCCGCAAAGACGTTATTAATGGATGAATAATCCTTCAATATAAATATCTCTCACTTATTTAAA too.
0.23

---

# Test system: Bacillus subtilis
# assayInfo: cleaved RNA product abundance (RNA/gDNA barcode ratio) relative to median wild-type variant (ratio to wild type); higher = more accumulation of the downstream cleavage product
# assayConditions: experiment (reporter, strain, medium): exp 2b: truncated aprE reporter, strain BJT200; cleavage site: cggR-gapA (positions -7 to +36 mutated)
Below, each of the sequences is paired with its reported cleaved RNA product abundance value.

Check out these entries, answers already filled in.
[
  {
    "orderedResidues": "ACAGACGAAGGAGCCGCAAAGAAGTTATTAAGGGATGAATAACCACTCAATATAAATATCTCTCACTTATTTAAA",
    "targetUnderTest": "Bacillus subtilis",
    "observedMeasurement": 0.0866
  },
  {
    "orderedResidues": "ACAGACGAAGGAGCCGCAAAAAAGTTATAAAGGGATGAATAATCCCTCAATATAAATATCTCTCACTTATTTAAA",
    "targetUnderTest": "Bacillus subtilis",
    "observedMeasurement": 0.4
  },
  {
    "orderedResidues": "ACAGACGAAGGAGCCGCAAGGAAGTAATTAAGGGATGAATAATCCATCAATATAAATATCTCTCACTTATTTAAA",
    "targetUnderTest": "Bacillus subtilis",
    "observedMeasurement": 0.122
  },
  {
    "orderedResidues": "ACAGACGAAGGAGCCGCAGAAAAGTTATTAAGGGATGAATAATCCCTCAATATAAATATCTCTCACTTATTTAAA",
    "targetUnderTest": "Bacillus subtilis",
    "observedMeasurement": 1.14
  },
  {
    "orderedResidues": "ACAGACGAAGGAGCCGCAAAGGAGTTAATAAGGGATGAATAATCCCTCAATATAAATATCTCTCACTTATTTAAA",
    "targetUnderTest": "Bacillus subtilis",
    "observedMeasurement": 0.34
  },
  {
    "orderedResidues": "ACAGACGAAGGAGCCGCATAGAAGTTATTAAGGGATGAATAATCCATCAATATAAATATCTCTCACTTATTTAAA",
    "targetUnderTest": "Bacillus subtilis",
    "observedMeasurement": 0.112
  },
  {
    "orderedResidues": "ACAGACGAAGGAGCCGCAAAGAAGTTATTAAGGTATGAATAATCCGTCAATATAAATATCTCTCACTTATTTAAA",
    "targetUnderTest": "Bacillus subtilis",
    "observedMeasurement": 0.0647
  },
  {
    "orderedResidues": "ACAGACGAAGGAGCCGCAAACAAGTTATTAAGGGATGAATAATCCCTCAATATAAATATCTCTCACTTATTTAAA",
    "targetUnderTest": "Bacillus subtilis",
    "observedMeasurement": 0.78
  }
]

Any idea what its cleaved RNA product abundance is? The sequence is ACAGACGAAGGAGCCGCAAAGAAGTTATTAAGGGCTGAATAATCCCTCAATATAAATATCTCTCACTTATTTAAA
0.587

Query ACAGACGAAGGAGCCGCAAAGAAGTCATTAAGGGATGAATAATCCCACAATATAAATATCTCTCACTTATTTAAA next
0.142

And what about the sequence ACAGACGAAGGAGCCGCAAAGATGTTATTAAGGCATGAATAATCCCTCAATATAAATATCTCTCACTTATTTAAA ?
0.108

Now the same for ACAGACGAAGGAGCCGCAAAGAAGTTATTAAGGGATGAATAATCCCTCGATATAAATATCTCTCACTTATTTAAA
0.348

Then what about the sequence ACAGACGAAGGAGCCGCAAAGATGTTATTAAGGGATGAATAATCCTTCAATATAAATATCTCTCACTTATTTAAA ?
0.366

Queued: ACAGACGAAGGAGCCGCAAAGAAGTTATTAAGGAATGAATAATCCCTCAATATAAATAGCTCTCACTTATTTAAA
0.108

How about ACAGACGAAGGAGCCGCAAAGAAGTTATTAAGGGATGAATAATCGCTCAATATAAATACCTCTCACTTATTTAAA ?
0.0956

---

# Test system: Bacillus subtilis
# assayInfo: cleaved RNA product abundance (RNA/gDNA barcode ratio) relative to median wild-type variant (ratio to wild type); higher = more accumulation of the downstream cleavage product
# assayConditions: experiment (reporter, strain, medium): exp 2b: truncated aprE reporter, strain BJT200; cleavage site: cggR-gapA (positions -7 to +36 mutated)
Answer false if cleaved RNA product abundance is under 0.1, and true if it is 0.1 or more.

[
  {
    "orderedResidues": "ACAGACGAAGGAGCCGCAAAGAAGTTATTAAGGGATGTATAATCCCTCAATATAAATATCTCTCACTTATTTAAA",
    "answerLabel": "true"
  },
  {
    "orderedResidues": "ACAGACGAAGGAGCCGCAAAGAAGTTATTAAGCGATGAATAATCCTTCAATATAAATATCTCTCACTTATTTAAA",
    "answerLabel": "false"
  },
  {
    "orderedResidues": "ACAGACGAAGGAGCCGCAAAGAAATTATTAAGGGATGAATAATCACTCAATATAAATATCTCTCACTTATTTAAA",
    "answerLabel": "true"
  }
]

Does cleaved RNA product abundance meet or surpass 0.1 for ACAGACGAAGGAGCCGCAAAGAAGTTATTAAGGGATGAATAACCCCTTAATATAAATATCTCTCACTTATTTAAA ?
true

Another sequence: ACAGACGAAGGAGCCGCAAAGAAGTTATTAAGCGATGAATAATCCCTCAAAATAAATATCTCTCACTTATTTAAA
false

For ACAGACGAAGGAGCCGCAAAGAAGTTATTAAGGTATGAATAATCCCTCAATATAAATCTCTCTCACTTATTTAAA then?
false

Same thing, different sequence: ACAGACGAAGGAGCCGCAAAGAAGTTATTAAAGGATGAATAATCCCTCGATATAAATATCTCTCACTTATTTAAA
false

Another: ACAGACGAAGGAGCCGCAAAGAAGTTATTAAAGGATGAATAATCCGTCAATATAAATATCTCTCACTTATTTAAA
true

Also check ACAGACGAAGGAGCCGCAAAGAAGTTTTTAAGGGATGAATAATCCATCAATATAAATATCTCTCACTTATTTAAA
true

Further, for ACAGACGAAGGAGCCGCAAAGAAGTTATTAAGGAATGAATAATCACTCAATATAAATATCTCTCACTTATTTAAA ?
true

Try this sequence too: ACAGACGAAGGAGCCGCAAAGAAGTTATTAAGGGAGGAATAATCCCTCAATATAAATATCTCTCACTTATTTAAA
true

Param item: ACAGACGAAGGAGCCGCAAAGAAGTTATTAAGCGATGAATAATCCCTCAAGATAAATATCTCTCACTTATTTAAA
false

What do you have for ACAGACGAAGGAGCCGCAAAGAAGTAATTAAGGGATAAATAATCCCTCAATATAAATATCTCTCACTTATTTAAA ?
true

What do you get for ACAGACGAAGGAGCCGCCAAGAAGTTATTAACGGATGAATAATCCCTCAATATAAATATCTCTCACTTATTTAAA ?
false
